assay_target: T1, T cell receptor (TCR) Vγ9 (TRGV9) (human, UniProt Q99603 21-122); also: test concentration or dose not given here
T1 chain (looked up): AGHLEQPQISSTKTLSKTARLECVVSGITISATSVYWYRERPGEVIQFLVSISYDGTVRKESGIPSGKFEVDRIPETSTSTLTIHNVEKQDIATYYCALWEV
test: cell-based or functional assay
In this section we review reported CD25+ (Vg9+ cells), flow staining values for a set of binders.

| binder | measurement_unit | CD25+ (Vg9+ cells), flow staining |
| --- | --- | --- |
| VG9B384 (antibody, human IgG1, lambda, V domains shown) VH: QVQLQESGPALVKPTQTLTLTCTFSGFSLSSSGMCVSWIRQPPGKALEWLTLIDWFDDKYYSTSLKTRLTISKDTSKNQVVLTMTNMDPVDTATYYCARIRGTGAYYYGLDVWGQGTMVTVSS VL: SYELMQPPSVSVSPGQTASITCSGNELGDKYASWYQQQPGQSPVLVIYQDNKRPSGIPERFSGSNSGNTATLTISGTQAMDEADYYCQAWDSSKVVFGGGTKLTVLG | % | 26.4 |
| VG9B191 (antibody, human IgG1, lambda, V domains shown) VH: EVQLVQSGGGLVKPGGSLRLSCAASGFTFSRYSMNWVRQAPGKGLEGVSSISSSSSYIYYADSVKGRFTISRDNAKNSLYLQMNSLRAEDTAVYYCARDGPTVNWDYYFDLWGRGTLVTVSS VL: QSVLTQPPSVSAAPGQKVTISCSGSSSNIGNNYVSWYQQLPGTAPKLLIYDNNKRPSGIPDRFSGSKSGTSATLGITGLQTGDEADYYCGTWDSSLSTSVVFGGGTKLTVLG | % | 42.4 |
| VG9B67 (antibody, human IgG1, kappa, V domains shown) VH: EVQLVESGGGLVKPGGSLRLSCAASGFTFSSYTMNWVRQAPGKGLEWVSSISSSSSYIDYAESVKGRFTISRDNAKNSLYLQMNSLRAEDTAVYYCARDGDILATIRGSFDYWGQGTTVTVSS VL: DIVMTQTPLSLPVTPGEPASISCRSSQSLLDSDAGNTYLDWYLQKPGQSPQLLIYTLSYRASGVPDRFSGSGSGTDFTLKISRVEAEDVAIYYCMQRIEFPITFGQGTKVEIKR | % | 28.5 |
